src = patent US7074789B2

- ASSAYED_SYSTEM: EGFR (Homo sapiens)
- Construct: Kinases are expressed as either kinase domains or full length constructs; made in house
- Sequence (P00533 25-1210, species assumed): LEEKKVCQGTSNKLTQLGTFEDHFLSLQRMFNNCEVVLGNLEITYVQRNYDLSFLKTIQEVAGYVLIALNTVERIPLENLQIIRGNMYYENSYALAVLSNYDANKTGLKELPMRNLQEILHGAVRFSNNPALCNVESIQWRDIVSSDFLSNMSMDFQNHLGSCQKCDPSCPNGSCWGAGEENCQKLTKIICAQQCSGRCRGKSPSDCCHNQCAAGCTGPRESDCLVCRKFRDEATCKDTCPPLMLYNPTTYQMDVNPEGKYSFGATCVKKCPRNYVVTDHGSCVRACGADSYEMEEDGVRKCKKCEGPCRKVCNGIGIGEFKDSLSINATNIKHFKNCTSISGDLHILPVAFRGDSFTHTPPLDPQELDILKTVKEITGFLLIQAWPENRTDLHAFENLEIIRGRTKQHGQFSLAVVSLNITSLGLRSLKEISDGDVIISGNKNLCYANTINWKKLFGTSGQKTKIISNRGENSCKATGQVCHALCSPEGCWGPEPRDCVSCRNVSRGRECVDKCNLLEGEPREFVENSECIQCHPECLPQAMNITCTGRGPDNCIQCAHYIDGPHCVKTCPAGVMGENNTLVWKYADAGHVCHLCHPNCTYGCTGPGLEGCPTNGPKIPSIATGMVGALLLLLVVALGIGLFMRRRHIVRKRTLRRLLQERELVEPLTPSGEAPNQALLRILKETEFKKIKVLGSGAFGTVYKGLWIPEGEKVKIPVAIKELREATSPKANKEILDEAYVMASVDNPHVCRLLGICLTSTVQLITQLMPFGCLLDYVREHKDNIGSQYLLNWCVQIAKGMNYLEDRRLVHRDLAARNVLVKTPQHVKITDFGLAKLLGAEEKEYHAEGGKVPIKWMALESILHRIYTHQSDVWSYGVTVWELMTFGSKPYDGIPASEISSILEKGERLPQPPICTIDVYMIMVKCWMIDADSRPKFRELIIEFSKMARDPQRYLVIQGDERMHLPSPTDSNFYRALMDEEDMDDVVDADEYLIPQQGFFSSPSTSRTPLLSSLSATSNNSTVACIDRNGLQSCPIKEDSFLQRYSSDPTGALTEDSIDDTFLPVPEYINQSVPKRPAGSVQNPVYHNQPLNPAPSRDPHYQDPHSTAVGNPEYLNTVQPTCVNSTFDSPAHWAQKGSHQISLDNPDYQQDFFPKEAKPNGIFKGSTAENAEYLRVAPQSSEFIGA
- MEASUREMENT_NOTES: Kinase inhibition assay (33P transfer), EGFR
- Format: biochemical
- EXPERIMENTAL_PARAMETERS: Table 2, kinase inhibition class; read-out: EGFR-1
pIC50: −log10 of the molar value.
READOUT_TYPE: pIC50

molecule=COc1cc(Nc2ncnc(-n3c(NCc4cccc(F)c4)nc4ccccc43)n2)cc(OC)c1OC readout_type=pIC50 result="5.05 to 5.16"
molecule=COc1cc(Nc2ncnc(N(c3ccc(Cl)cc3)c3nc4ccccc4[nH]3)n2)cc(OC)c1OC readout_type=pIC50 result="> 6.10"
molecule=CN(c1cccc(Cl)c1)c1ncnc(Nc2cc(-c3ccco3)[nH]n2)n1 readout_type=pIC50 result="> 5.96"
molecule=COc1cc(C)c(Nc2ncnc(Nc3cc(-c4ccccc4)n[nH]3)n2)cc1OC readout_type=pIC50 result="5.23 to 6.00"
molecule=COc1ncnc(Nc2cc(OC)c(OC)c(OC)c2)n1 readout_type=pIC50 result="< 4.81"

Let's switch to this molecule now.
Reported pIC50 for `COCCOc1ccc(Nc2ncnc(Nc3ccc(C)c(O)c3)n2)cc1OC` : what is it?
> 6.00
